# Test system: K. pneumoniae (ATCC 13883)
# Assay type: cell-based, Klebsiella pneumoniae
# CONDITION DETAILS: K. pneumoniae ATCC 13883; MHB-II, inoculum 5 × 10^5 CFU/mL, 37 °C, 18–24 h, triplicate

| INPUT SMILES | MIC KP |
| --- | --- |
| CC[C@@H](C)[C@@H](NC(=O)[C@@H](CCCCN)NC(=O)[C@@H](CCCCN)NC(=O)[C@@H](Cc1ccccc1)NC(=O)[C@@H](CC(C)C)NC(=O)[C@@H](CCCCN)NC(=O)[C@H](N)CCCCN)C(=O)N1CCCC[C@H](C(N)=O)NC(=O)[C@@H](Cc2ccc(O)cc2)NC(=O)[C@@H](CCCNC(=N)N)NC(=O)[C@@H](CC(C)C)NC(=O)C1 | > 64 µg/mL |

Origin of the recorded values: paper PMC9404711
